tested on: oilseed rape (Brassica napus); assay: Test D controlled growth environment herbicide test, pre- and postemergence; type: in vivo; details: Postemergence, 125 g ai/ha; visual rating on scale 0 (no effect) to 100 (complete control), 14 to 21 d
Text: […]
Strictly below 80 in Plant response rating, Oilseed Rape: y. Otherwise: n.

INSERT INTO assay_data (smiles_representation, answer_label) VALUES
  ('CCOC(=O)Oc1c(C)nn(C)c(=O)c1-c1c(C)sc2c(C)cc(C)cc12', 'y'),
  ('COc1nn(C)c(=O)c(-c2c(C)ccc3ccccc23)c1O', 'n'),
  ('CC(=O)Oc1c(C)nn(C)c(=O)c1-c1c(C)cc(C)c2ccccc12', 'n'),
  ('CCOC(=O)Oc1c(C)nn(C)c(=O)c1-c1c(C)ccc2ccccc12', 'y'),
  ('Cc1ccc2sc(C)c(-c3c(O)c(C)nn(C)c3=O)c2c1', 'y'),
  ('CC(=O)Oc1c(C)nn(C)c(=O)c1-c1ccc(F)c2ccccc12', 'y'),
  ('Cc1ccc2ccc(C)c(-c3c(O)c(C)nn(C)c3=O)c2c1', 'y');

====

tested on: nutsedge, yellow (yellow nutsedge, Cyperus esculentus); assay: Test E greenhouse herbicide test, pre- and postemergence; assay type: in vivo; conditions: Preemergence, 31 g ai/ha; scale 0 to 100, 0 no effect, 100 complete control
Below, each entry is listed alongside its reported Plant response rating, Nutsedge, Yellow.
READOUT_LABEL: Plant response rating, Nutsedge, Yellow

INSERT INTO measurements (smiles_representation, readout_value) VALUES
  ('Cc1ccc2ccccc2c1-c1c(O)c(C)nn(C)c1=O', 50),
  ('CC(=O)Oc1c(C)nn(C)c(=O)c1-c1c(C)sc2ccc(C)cc12', 0),
  ('CC(=O)Oc1c(C)nn(C)c(=O)c1-c1c(C)sc2c(C)cc(C)cc12', 10),
  ('Cc1ccc2sc(C)c(-c3c(O)c(C)nn(C)c3=O)c2c1', 10),
  ('CCOC(=O)Oc1c(C)nn(C)c(=O)c1-c1c(CC)ccc2ccccc12', 0),
  ('CCOC(=O)Oc1c(C)nn(C)c(=O)c1-c1c(C)sc2c(C)cc(C)cc12', 65);

====

system: morningglory (Ipomoea coccinea); experiment: Test C greenhouse herbicide test, pre- and postemergence; assay type: in vivo; settings: Preemergence, 62 g ai/ha; scale 0 to 100, 0 is no effect, 100 is complete control
Description: […]
Below, each entry is listed with its recorded Plant response rating, Morningglory.
READOUT_LABEL: Plant response rating, Morningglory

INSERT INTO results (smiles_representation, readout_label, readout_value) VALUES
  ('CCOC(=O)Oc1c(C)nn(C)c(=O)c1-c1c(C)sc2ccc(C)cc12', 'Plant response rating, Morningglory', 90),
  ('Cc1ccc2ccccc2c1-c1c(O)c(Cl)nn(C)c1=O', 'Plant response rating, Morningglory', 95),
  ('COc1nn(C)c(=O)c(-c2c(C)ccc3ccccc23)c1OC(C)=O', 'Plant response rating, Morningglory', 90),
  ('Cc1cc(C)c2sc(C)c(-c3c(OC(=O)OC(C)C)c(C)nn(C)c3=O)c2c1', 'Plant response rating, Morningglory', 80),
  ('Cc1ccc2ccc(C)c(-c3c(O)c(C)nn(C)c3=O)c2c1', 'Plant response rating, Morningglory', 98);

====

system: buckwheat, wild (wild buckwheat, Polygonum convolvulus); test: Test D controlled growth environment herbicide test, pre- and postemergence; format: in vivo; details: Preemergence, 125 g ai/ha; scale 0 to 100 (0 no effect, 100 complete control)
READOUT_LABEL: Plant response rating, Buckwheat, Wild

INSERT INTO measurements (smiles_representation, readout_value) VALUES
  ('C#CCOC(=O)Oc1c(C)nn(C)c(=O)c1-c1c(C)sc2ccc(C)cc12', 0),
  ('Cc1ccc2sc(C)c(-c3c(O)c(C)nn(C)c3=O)c2c1', 65),
  ('CC(=O)Oc1c(Br)nn(C)c(=O)c1-c1c(C)ccc2ccccc12', 85),
  ('Cc1nn(C)c(=O)c(-c2c(C)sc3ccc(Cl)cc23)c1O', 55);

====

tested on: buckwheat, wild (wild buckwheat, Polygonum convolvulus); experiment: Test D controlled growth environment herbicide test, pre- and postemergence; assay type: in vivo; details: Preemergence, 250 g ai/ha; scale 0 to 100 (0 no effect, 100 complete control)
Kind request: treat 10 as inclusive, so Plant response rating, Buckwheat, Wild at 10 or higher is class 1, anything lower is class 0.

INSERT INTO measurements (smiles_representation, assayed_target, answer_label) VALUES
  ('Cc1cc(C)c2sc(C)c(-c3c(OC(=O)OC(C)C)c(C)nn(C)c3=O)c2c1', 'buckwheat, wild (wild buckwheat, Polygonum convolvulus)', 'class 0'),
  ('Cc1cc(C)c2sc(C)c(-c3c(OC(=O)OCCCl)c(C)nn(C)c3=O)c2c1', 'buckwheat, wild (wild buckwheat, Polygonum convolvulus)', 'class 1'),
  ('CC(=O)Oc1c(C)nn(C)c(=O)c1-c1c(C)cc(C)c2ccccc12', 'buckwheat, wild (wild buckwheat, Polygonum convolvulus)', 'class 1'),
  ('Cc1nn(C)c(=O)c(-c2c(C)sc3ccc(Cl)cc23)c1O', 'buckwheat, wild (wild buckwheat, Polygonum convolvulus)', 'class 1'),
  ('CCOC(=O)Oc1c(C)nn(C)c(=O)c1-c1c(C)sc2ccc(C)cc12', 'buckwheat, wild (wild buckwheat, Polygonum convolvulus)', 'class 0');

====

Items are presented alongside their recorded Barnyardgrass plant response rating.
tested on: barnyardgrass (Echinochloa crus-galli); test: Test A greenhouse herbicide test, pre- and postemergence; format: in vivo; conditions: Preemergence, 125 g ai/ha; 0 to 100 scale where 0 is no effect and 100 is complete control
READOUT_LABEL: Barnyardgrass plant response rating

INSERT INTO results (compound, assayed_target, readout_label, readout_value) VALUES
  ('COC(=O)Oc1c(C)nn(C)c(=O)c1-c1c(C)sc2c(C)cc(C)cc12 [Compound 81]', 'barnyardgrass (Echinochloa crus-galli)', 'Barnyardgrass plant response rating', 90),
  ('CC(=O)Oc1c(C)nn(C)c(=O)c1-c1c(C(F)(F)F)ccc2ccccc12 [Compound 148]', 'barnyardgrass (Echinochloa crus-galli)', 'Barnyardgrass plant response rating', 10),
  ('CCC(=O)Oc1c(C)nn(C)c(=O)c1-c1c(C)sc2ccc(Cl)cc12 [Compound 109]', 'barnyardgrass (Echinochloa crus-galli)', 'Barnyardgrass plant response rating', 20),
  ('COc1ccc2ccccc2c1-c1c(O)c(C)nn(C)c1=O [Compound 40]', 'barnyardgrass (Echinochloa crus-galli)', 'Barnyardgrass plant response rating', 10),
  ('Cc1ccc(-c2c(O)cnn(C)c2=O)c2ccccc12 [Compound 50]', 'barnyardgrass (Echinochloa crus-galli)', 'Barnyardgrass plant response rating', 0),
  ('COc1nn(C)c(=O)c(-c2c(C)ccc3ccccc23)c1OC(=O)OC(C)C [Compound 36]', 'barnyardgrass (Echinochloa crus-galli)', 'Barnyardgrass plant response rating', 0),
  ('Cc1ccc(-c2c(O)c(Br)nn(C)c2=O)c2ccccc12 [Compound 52]', 'barnyardgrass (Echinochloa crus-galli)', 'Barnyardgrass plant response rating', 50),
  ('CCOC(=O)Oc1c(C)nn(C)c(=O)c1-c1c(C)sc2ccc(C)cc12 [Compound 82]', 'barnyardgrass (Echinochloa crus-galli)', 'Barnyardgrass plant response rating', 40),
  ('Cc1nn(C)c(=O)c(-c2c(C)sc3ccccc23)c1O [Compound 65]', 'barnyardgrass (Echinochloa crus-galli)', 'Barnyardgrass plant response rating', 60),
  ('Cc1nn(C)c(=O)c(-c2cccc3ccc(C#N)cc23)c1O [Compound 127]', 'barnyardgrass (Echinochloa crus-galli)', 'Barnyardgrass plant response rating', 10),
  ('Cc1cc(C)c2sc(C)c(-c3c(OC(=O)OCCCl)c(C)nn(C)c3=O)c2c1 [Compound 85]', 'barnyardgrass (Echinochloa crus-galli)', 'Barnyardgrass plant response rating', 70),
  ('CCOC(=O)Oc1c(C)nn(C)c(=O)c1-c1c(C)sc2c(C)cc(C)cc12 [Compound 83]', 'barnyardgrass (Echinochloa crus-galli)', 'Barnyardgrass plant response rating', 70),
  ('COc1nn(C)c(=O)c(-c2cccc3ccccc23)c1O [Compound 55]', 'barnyardgrass (Echinochloa crus-galli)', 'Barnyardgrass plant response rating', 90),
  ('Cc1cc(C)c2c(-c3c(OC(=O)C(C)(C)C)c(C)nn(C)c3=O)c(C)sc2c1 [Compound 45]', 'barnyardgrass (Echinochloa crus-galli)', 'Barnyardgrass plant response rating', 0),
  ('Cc1nn(C)c(=O)c(-c2cc(F)cc3ccccc23)c1OS(C)(=O)=O [Compound 115]', 'barnyardgrass (Echinochloa crus-galli)', 'Barnyardgrass plant response rating', 10),
  ('CCc1ccc2ccc(C)cc2c1-c1c(O)c(C)nn(C)c1=O [Compound 103]', 'barnyardgrass (Echinochloa crus-galli)', 'Barnyardgrass plant response rating', 40);

====

tested on: foxtail, green (green foxtail, Setaria viridis); experiment: Test D controlled growth environment herbicide test, pre- and postemergence; assay type: in vivo; details: Postemergence, 250 g ai/ha; scale 0 to 100 (0 no effect, 100 complete control)
The following molecules are shown together with reported Plant response rating, Foxtail, Green values.
READOUT_LABEL: Plant response rating, Foxtail, Green

INSERT INTO assay_data (smiles_representation, readout_value) VALUES
  ('CC(=O)Oc1c(C)nn(C)c(=O)c1-c1c(C)sc2ccc(C)cc12', 75),
  ('CCC(=O)Oc1c(C)nn(C)c(=O)c1-c1c(C)sc2ccc(C)cc12', 80),
  ('COc1nn(C)c(=O)c(-c2c(C)ccc3ccccc23)c1OC(=O)OC(C)C', 90),
  ('CC(=O)Oc1c(C)nn(C)c(=O)c1-c1c(C)cc(C)c2ccccc12', 85),
  ('CCC(=O)Oc1c(C)nn(C)c(=O)c1-c1c(C)sc2ccc(Cl)cc12', 85),
  ('CCOC(=O)Oc1c(C)nn(C)c(=O)c1-c1c(C)ccc2ccccc12', 80),
  ('Cc1ccc2ccccc2c1-c1c(O)c(C)nn(C)c1=O', 85),
  ('CC(=O)Oc1c(C)nn(C)c(=O)c1-c1ccc(F)c2ccccc12', 75),
  ('C#CCOC(=O)Oc1c(C)nn(C)c(=O)c1-c1c(C)sc2ccc(C)cc12', 90);

This collection of values is drawn from patent US10597388B2.
